System: human M2 macrophages
Assay: Inhibition of human M2 macrophage activity, hCCL22 in culture supernatant by ELISA
Format: cell-based
Settings: hCCL22 secretion, THP-1 derived M2-like macrophages, compound present during 72 hours of differentiation
Counter-ions that a name gives are not always drawn.
API: label(entry) gives rule met if the entry's EC50 is strictly smaller than 10 µM; on equality or larger values it gives rule not met.

Report whether reported EC50 is lower than 10 µM (strictly) for CC(=O)c1ccc(-n2c(=O)n3n(c2=O)C2C(=CC3)C(C)(C)Oc3cc(-c4ccncc4)ccc32)cc1 (stereo not shown) [Example 43]
rule not met

For CC(=O)c1ccc(-n2c(=O)n3n(c2=O)C2C(=CC3)C(C)(C)Oc3cc(-c4cccnc4)ccc32)cc1 (stereo not shown) [Example 42] , is the recorded EC50 below the cut-off of 10 µM?
rule not met

Would you kindly verify if EC50 of CC(=O)c1ccc(-n2c(=O)n3n(c2=O)C2C(=CC3)C(C)(C)Oc3cc(OC(=O)C(C)(C)C)ccc32)cc1 (stereo not shown) [Example 58] is strictly less than 10 µM?
rule not met

Record CC(=O)c1ccc(-n2c(=O)n3n(c2=O)C2C(=CC3)C(C)(C)Oc3cc(NCC(F)(F)F)ccc32)cc1 (stereo not shown) [Example 17] : is its EC50 strictly below 10 µM?
rule met

Lab note: EC50 threshold 10 µM. Does this molecule come in strictly under it? CN1CCN(c2ccc3c(c2)OC(C)(C)C2=CCn4c(=O)n(-c5ccc(F)cc5)c(=O)n4C23)CC1 (stereo not shown) [Example 50]
rule not met

Given CC1(C)Oc2cc(OP(=O)(O)O)ccc2C2C1=CCn1c(=O)n(-c3ccc(F)cc3)c(=O)n12 (stereo not shown) [Example 143] , is recorded EC50 strictly lower than 10 µM?
rule met

Here is another molecule to look at.
Answer whether the molecule CC(=O)c1ccc(-n2c(=O)n3n(c2=O)C2C(=CC3)C(C)(C)Oc3cc(OC(=O)N4CCN(C(=O)CN(C)C)CC4(C)C)ccc32)cc1 (stereo not shown) [Example 119, hydrochloride] has EC50 strictly less than 10 µM
rule met

---

Tested on: human M2 macrophages
Assay: Inhibition of human M2 macrophage activity, hCCL22 in culture supernatant by ELISA
Format: cell-based
Details: hCCL22 secretion, THP-1 derived M2-like macrophages, compound present during 72 hours of differentiation
Structures can show the parent of a compound that is named as a salt.
readout_label: pEC50
Hey, just a heads up that pEC50 is the negative log base 10 of the concentration in molar.

For orientation, consider the following solved cases.
Quickly give me recorded pEC50 for CC(=O)c1ccc(-n2c(=O)n3n(c2=O)C2C(=CC3)C(C)(C)Oc3cc(N(C)C(C)C)ccc32)cc1 (centres unmarked)
5.04

Tell us which pEC50 value is on record for CC(=O)c1ccc(-n2c(=O)n3n(c2=O)C2C(=CC3)C(C)(C)Oc3cc(N4CCN(C)CC4)ccc32)cc1 (centres unmarked)
4.47

Name the recorded pEC50 of the item CN1CCN(c2ccc3c(c2)OC(C)(C)C2=CCn4c(=O)n(-c5ccc(C(C)(C)C)cc5)c(=O)n4C23)CC1 (centres unmarked) in your answer.
5.01

Answer with the recorded pEC50 for the compound listed here: CC(=O)c1ccc(-n2c(=O)n3n(c2=O)C2C(=CC3)C(C)(C)Oc3cc(OC(=O)N4CCNCC4)ccc32)cc1 (centres unmarked) [Example 67, hydrochloride]
4.76

Next:
Given the compound CC(=O)c1ccc(-n2c(=O)n3n(c2=O)C2C(=CC3)C(C)(C)Oc3cc(OC(=O)N4CCN(C(=O)CN(C)C)CC4)ccc32)cc1 (centres unmarked) [Example 99, hydrochloride] , write its reported pEC50.
4.49
